assay_procedure: RP, Thermo Scientific Acclaim RSLC 120 C18, 100 × 2.1 mm, 2.2 µm, 30 °C, 0.2 mL/min, estimated dead time 1.1 min; A: 90% water + 10% methanol + 0.01% formic acid + 5 mM ammonium formate, pH 3.61; B: methanol + 0.01% formic acid + 5 mM ammonium formate, pH 3.61; gradient (min/%B) 0/1 1/1 2/39 13/99.9 15/99.9 15.1/1 20.1/1
conditions: stereoisomer not certain
Criterion: LC retention time meeting or surpassing 9 min. Met: criterion met. Not met: criterion not met.

{"columns": ["molecule", "group"],
 "data": [
  ["CN(Cc1nc2c(N)nc(N)nc2[nH]c1=O)c1ccc(C(=O)NC(CCC(=O)O)C(=O)O)cc1 (centres undefined) [7-Hydroxymethotrexat]", "criterion not met"],
  ["C#CCNC(C)Cc1ccccc1 (centres undefined) [Deprenyl-Nor]", "criterion not met"],
  ["CCC(=O)OCC(=O)C1(OC(=O)CC)C(C)CC2C3CCC4=CC(=O)C=CC4(C)C3(F)C(O)CC21C (centres undefined) [Betamethasone dipropionate]", "criterion met"],
  ["NC(=O)c1ncn(C2OC(CO)C(O)C2O)n1 (centres undefined) [Ribavirin]", "criterion not met"],
  ["COc1ccnc(CS(=O)c2nc3ccc(OC(F)F)cc3[nH]2)c1OC (centres undefined) [Pantoprazole]", "criterion not met"],
  ["COc1cc(OC)nc(NC(=O)NS(=O)(=O)c2ncccc2C(F)(F)F)n1 [Flazasulfuron]", "criterion not met"],
  ["CCCCCCCCCCCC(=O)N(CCO)CCO [Lauryl diethanolamide]", "criterion met"],
  ["CC(C)CNC(=O)N1CCNC1=O [Isocarbamid (Azolamide)]", "criterion not met"],
  ["COCC1CN=C(c2ccccc2Cl)c2cc(Br)ccc2N1C (centres undefined) [Metaclazepam]", "criterion met"],
  ["CCCCCCCCCCCCNC [N-Methyldodecylamine]", "criterion met"],
  ["CCC[N+]12C(O)C(CC)C3CC1C1N(C)c4ccccc4C14CC2C3C4O (centres undefined) [Prajmaline]", "criterion not met"],
  ["CCOC(=O)CC(SP(=O)(OC)OC)C(=O)OCC (centres undefined) [Malaoxon]", "criterion not met"],
  ["COC(=O)c1c(C(F)F)nc(C(F)(F)F)c(C2=NCCS2)c1CC(C)C [Thiazopyr]", "criterion met"],
  ["CC[N+]1([O-])CCCC1CNC(=O)c1cc(S(=O)(=O)CC)c(N)cc1OC (centres undefined) [Amisulpride-N-Oxide]", "criterion not met"],
  ["O=C(Oc1ccccc1)c1ccccc1C(=O)Oc1ccccc1 [Phthalate-Diphenyl]", "criterion met"],
  ["O=C(O)c1c(Cl)ccc2cc(Cl)cnc12 [Quinclorac]", "criterion not met"],
  ["O=c1[nH]c2ccccc2s1 [Benzothiazole -2-OH]", "criterion not met"],
  ["OC(CCN1CCCC1)(c1ccccc1)C1CCCCC1 (centres undefined) [Procyclidine]", "criterion not met"]
]}

====

assay_procedure: RP, Thermo Scientific Acclaim RSLC 120 C18, 100 × 2.1 mm, 2.2 µm, 30 °C, 0.2 mL/min, estimated dead time 1.1 min; A: 90% water + 10% methanol + 0.01% formic acid + 5 mM ammonium formate, pH 3.61; B: methanol + 0.01% formic acid + 5 mM ammonium formate, pH 3.61; gradient (min/%B) 0/1 1/1 2/39 13/99.9 15/99.9 15.1/1 20.1/1
conditions: stereoisomer not certain
observation_type: LC retention time (min)

{"columns": ["molecule", "observation_type", "unit_spec", "result_number"],
 "data": [
  ["CCOP(=S)(Oc1cnc(C(C)(C)C)nc1)OC(C)C (stereo not given)", "LC retention time", "min", 12.3],
  ["CN1C(=O)C(O)N=C(c2ccccc2Cl)c2cc(Cl)ccc21 (stereo not given)", "LC retention time", "min", 8.61],
  ["Cc1cc2n[nH]nc2cc1C", "LC retention time", "min", 6.76],
  ["CNC(=O)ON=C(CSC)C(C)(C)C", "LC retention time", "min", 7.8],
  ["CCN(CC)CCNC(=O)c1cc(Cl)c(N)cc1OC [Metoclopramide]", "LC retention time", "min", 4.36]
]}

Origin of the recorded values: the RepoRT retention time repository (doi:10.1021/acs.analchem.2c02893)
